% Inhibition reference
Target: T1, human neutrophil elastase (HNE) (human, UniProt P08246 30-247, limits assumed); also: test concentration or dose not given here
T1 sequence (looked up): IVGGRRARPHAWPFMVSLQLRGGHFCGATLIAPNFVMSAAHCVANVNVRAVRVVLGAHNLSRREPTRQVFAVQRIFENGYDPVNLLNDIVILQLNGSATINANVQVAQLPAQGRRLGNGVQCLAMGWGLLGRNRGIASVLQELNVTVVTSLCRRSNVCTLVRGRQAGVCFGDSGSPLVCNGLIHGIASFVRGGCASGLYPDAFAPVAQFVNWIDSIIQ
Test: cell-based or functional assay

1) AATG1 (other, human, mature) HHHHHHEDPQGDAAQKTDTSHHDQDHPTFNKITPNLAEFAFSLYRQLAHQSNSTNIFFSPVSIATAFAMLSLGTKADTHDEILEGLNFNLTEIPEAQIHEGFQELLRTLNQPDSQLQLTTGNGLFLSEGLKLVDKFLEDVKKLYHSEAFTVNFGDTEEAKKQINDYVEKGTQGKIVDLVKELDRDTVFALVNYIFFKGKWERPFEVKDTEEEDFHVDQVTTVKVPMMKRLGMFNIQHCKKLSSWVLLMKYLGNATAIFFLPDEGKLQHLENELTHDIITKFLENEDRRSASLHLPKLSITGTYDLKSVLGQLGITKVFSNGADLSGVTEEAPLKLSKAVHKAVLTIDEKGTEAAGAMFLEGSLRSIPPEVKFNKPFVFLMIEQNTKSPLFMGKVVNPTQK | 0%
2) AATG1g (other, human, mature) HHHHHHEDPQGDAAQKTDTSHHDQDHPTFNKITPNLAEFAFSLYRQLAHQSNSTNIFFSPVSIATAFAMLSLGTKADTHDEILEGLNFNLTEIPEAQIHEGFQELLRTLNQPDSQLQLTTGNGLFLSEGLKLVDKFLEDVKKLYHSEAFTVNFGDTEEAKKQINDYVEKGTQGKIVDLVKELDRDTVFALVNYIFFKGKWERPFEVKDTEEEDFHVDQVTTVKVPMMKRLGMFNIQHCKKLSSWVLLMKYLGNATAIFFLPDEGKLQHLENELTHDIITKFLENEDRRSASLHLPKLSITGTYDLKSVLGQLGITKVFSNGADLSGVTEEAPLKLSKAVHKAVLTIDEKGTEAAGAMFLEGSLRGIPPEVKFNKPFVFLMIEQNTKSPLFMGKVVNPTQK | 0%

I am curious: what % Inhibition value has been reported for AATG9 (other, human, mature; also called rAATG9) HHHHHHEDPQGDAAQKTDTSHHDQDHPTFNKITPNLAEFAFSLYRQLAHQSNSTNIFFSPVSIATAFAMLSLGTKADTHDEILEGLNFNLTEIPEAQIHEGFQELLRTLNQPDSQLQLTTGNGLFLSEGLKLVDKFLEDVKKLYHSEAFTVNFGDTEEAKKQINDYVEKGTQGKIVDLVKELDRDTVFALVNYIFFKGKWERPFEVKDTEEEDFHVDQVTTVKVPMMKRLGMFNIQHCKKLSSWVLLMKYLGNATAIFFLPDEGKLQHLENELTHDIITKFLENEDRRSASLHLPKLSITGTYDLKSVLGQLGITKVFSNGADLSGVTEEAPLKLSKAVHKAVLTIDEKGTEAAGAMFLETVDYAIPPEVKFNKPFVFLMIEQNTKSPLFMGKVVNPTQK ?
0%
